The values you see were collected from patent KR20210118351A.

- targetOrTestSystem: S protein of SARS-CoV-2 BetaCoV/Korea/KCDC03/2020 (614D, S형) (SARS-CoV-2, UniProt P0DTC2 14-1273)
- measurementNotes: cell-based or functional assay
measuredMetric: IC50, PRNT (µg/mL)
Write the answer as a number in µg/mL, unit excluded.

[in] For the binder No. 275 항체 (Full IgG) (antibody, V domains shown) VH: EVQLVESGGGLVQPGGSLRLSCAASGFTVSSNYMTWVRQAPGKGLEWVSVIYSGGSTFYADSVKGRFTISRDNSKNTLYLQMNSLRAEDTAVYYCARDLVVYGMDVWGQGTTVTVSS VL: ELVLTQPPSVSVAPGKTARITCGGNNIGSNTVNWYQQLPGTAPKLLIYSNNLRPSGVPDRFSGSKSGTSASLAISGLQSEDEADYYCAAWDDSLNGPVFGGGTKVTVL , give its reported IC50, PRNT.
[out] 0.272

[in] For the binder No. 284 항체 (Full IgG) (antibody, V domains shown) VH: QVQLVQSGGGLVQPGGSLRLSCAASGVTVSSNYMSWVRQAPGKGLEWVSVIYSGGSTYYADSVKGRFTISRHNSKNTLYLQMNSLRAEDTAVYYCARGHVDIPYGMDVWGQGTTVTVSS VL: ELVLTQPPSVSAAPGQKVTISCSGSSSNIGNNYVSWYQQLPGTAPKLLIYDNNKRPSGIPDRFSGSKSGTSATLGITGLQTGDEADYYCGTWDSSLSAGVFGGGTQLTVL , give its reported IC50, PRNT.
[out] 0.702

[in] For the binder No. 271 항체 (Full IgG) (antibody, V domains shown) VH: EVQLVESGGGLVQPGGSLRLSCAASGFTVSSNYMTWVRQAPGKGLEWVSVIYSGGSTFYADSVKGRFTISRDNSKNTLYLQMNSLRAEDTAVYYCARDLVVYGMDVWGQGTTVTVSS VL: ELELTQPPSASGTPGQRVTISCSGSSSNIGSNTVNWYQQLPGTAPKLLIYSNNQRPSGVPDRFSGSKSGTSASLAISGLQSEDEADYYCSSYAGSNNLVFGGGTKLTVL , give its reported IC50, PRNT.
[out] 1.68
